Record form. Attribute: growth. Fill in for each entry.
# Test system: M14 melanoma
# assayProcedure: NCI-60 one-dose screen, 48 h (100 = growth as untreated, 0 = no growth, -100 = all killed)
# settings: 10 µM unless noted
Compounds without any hit were thinned out: in the full panel of roughly 83,000, 20% have a hit. Activity calls are given as the source filed them. How the source made its calls: active means growth percent below 10; inactive means the rest.

Ask | Quote growth reported for CC1(C)OC(=O)CC1=O please.
Reply | 93.9% (inactive)

Ask | Quote growth reported for COC(=O)c1ccc([N+](=O)[O-])c(C)c1 please.
Reply | 94% (inactive)

Ask | Quote growth reported for O=C(NCc1ccccc1)/C(=C/c1ccccc1)NC(=O)c1ccccc1 please.
Reply | 101% (inactive)

Ask | Quote growth reported for Oc1cccnc1CN1CCCC1 please.
Reply | 112% (inactive)

Ask | Quote growth reported for Cc1cc(Cl)cc(Cc2cc(Cl)cc(C)c2O)c1O please.
Reply | 14.2% (inactive)

Ask | Quote growth reported for NC(=S)N/N=C/c1ccc(Cl)cc1 please.
Reply | 108% (inactive)

Ask | Quote growth reported for C=CCNC(=S)N/C=C(/C(=O)c1ccccc1)c1ccccc1 please.
Reply | 91.9% (inactive)

Ask | Quote growth reported for C=CCC(O)C=C (centres undefined) please.
Reply | 104% (inactive)

Ask | Quote growth reported for O=Cc1c(O)c2ccccc2[nH]c1=O please.
Reply | 94.4% (inactive)

Ask | Quote growth reported for COc1nc(Nc2cccc(C(F)(F)F)c2)nc(OC)n1 please.
Reply | 113% (inactive)

Ask | Quote growth reported for CC(=O)NC(O)C(Cl)Cl (centres undefined) please.
Reply | 110% (inactive)

Ask | Quote growth reported for O=S(=O)(O)c1ccc(O)c(C2CCCCC2)c1 please.
Reply | 101% (inactive)

Ask | Quote growth reported for CC1=CC(=Nc2ccc(N(C)C)cc2)C=C(C)C1=O please.
Reply | 91.9% (inactive)

Ask | Quote growth reported for C=CCC(OC(C)=O)c1ccc(C(C)C)cc1 (centres undefined) please.
Reply | 114% (inactive)

* * *

# Test system: RXF 393 renal
# assayProcedure: NCI-60 one-dose screen, 48 h
# settings: 10 µM unless noted
Compounds without any hit were thinned out: in the full panel of roughly 83,000, 20% have a hit. Activity calls are given as the source filed them. Rule for the calls: active = growth percent below 10; inactive = the rest.
Field 'call' accepts active, inactive

Ask | Hi, do you know how NC(=O)OCCO came out in this test?
Reply | inactive

Ask | Hi, do you know how CC1CN(CCO)CC(C)O1 (configuration not stated) came out in this test?
Reply | inactive

Ask | Hi, do you know how CCNc1ccc2ccccc2c1N=Nc1ccc(N=Nc2ccccc2)cc1 came out in this test?
Reply | inactive

Ask | Hi, do you know how Cc1ccc([N+](=O)[O-])c(C)n1 came out in this test?
Reply | inactive

Ask | Hi, do you know how Cc1cc(CO)c(O)c(CO)c1 came out in this test?
Reply | inactive

Ask | Hi, do you know how CCCCCC#CC(=O)O came out in this test?
Reply | inactive

Ask | Hi, do you know how COc1ccc2c(ccc[n+]2C)c1 came out in this test?
Reply | inactive

Ask | Hi, do you know how O=C(c1ccccc1O)N1CCCC1 came out in this test?
Reply | inactive

Ask | Hi, do you know how C=C(C)[C@@H]1CC[C@]2(CO)CC[C@]3(C)[C@H](CC[C@@H]4[C@@]5(C)CC[C@H](O)C(C)(C)[C@@H]5CC[C@]43C)[C@@H]12 came out in this test?
Reply | active

Ask | Hi, do you know how C=C(C)COc1ccc(C(C)(C)C)cc1 came out in this test?
Reply | inactive

Ask | Hi, do you know how Cc1ccc(S(=O)(=O)Oc2ccc3sc4c(CO)ccc(NCCN(C)C)c4c(=O)c3c2)cc1 came out in this test?
Reply | active

Ask | Hi, do you know how O=C(Nc1ccccc1)c1ccco1 came out in this test?
Reply | inactive

Ask | Hi, do you know how CCOC(=O)CSCCC#N came out in this test?
Reply | inactive

Ask | Hi, do you know how CC(=O)C1C(=O)C(=O)N(c2ccc(Cl)c(Cl)c2)C1=O (configuration not stated) came out in this test?
Reply | inactive

Ask | Hi, do you know how C1C[S+]2CC[S+]1CC2 came out in this test?
Reply | inactive

Ask | Hi, do you know how Cn1c(=O)[nH]c2ccccc2c1=O came out in this test?
Reply | inactive

Ask | Hi, do you know how C=C1C(=O)C2CCN1CC2 came out in this test?
Reply | inactive

Ask | Hi, do you know how COC1CC(OC(=O)c2ccc([N+](=O)[O-])cc2)C(COC(=O)c2ccc([N+](=O)[O-])cc2)O1 (configuration not stated) came out in this test?
Reply | inactive

Ask | Hi, do you know how CC(C)N(C(=O)c1ccccc1)C(C)C came out in this test?
Reply | inactive

Ask | Hi, do you know how CC1CCC(C)(C)c2ccccc21 (configuration not stated) came out in this test?
Reply | inactive

Ask | Hi, do you know how CCCCCCCCCCCCCCCCCC(=O)NCCNC(=O)CCCCCCCCCCCCCCCCC came out in this test?
Reply | inactive

Ask | Hi, do you know how COc1c(CNC(=O)CCl)cc2[nH]c(C)cc2c1CNC(=O)CCl came out in this test?
Reply | inactive

Ask | Hi, do you know how Cc1ccc(NC(=O)c2ccccc2Cl)cc1 came out in this test?
Reply | inactive

Ask | Hi, do you know how COc1cc(C(=O)O)c(O)c(C(C)(C)C)c1 came out in this test?
Reply | inactive

Ask | Hi, do you know how CCCCCC/C=C\CCCCCCCCCc1cc(O)cc(OC)c1O came out in this test?
Reply | inactive

Ask | Hi, do you know how Oc1ccc(N=Cc2ccc(OCc3ccccc3)cc2)cc1 came out in this test?
Reply | inactive

Ask | Hi, do you know how Cc1cccc2ccccc12 came out in this test?
Reply | inactive
